experimental.details: Instantaneous solubility of the compounds of formula (I) in aqueous media
Format: physicochemical
recorded.conditions: instantaneous solubility, room temperature, acetic buffer pH 7.5
Where a name gives a salt, the structure may show the parent alone.
observation.type: Solubility, dissolution medium Acetic buffer pH 7.5 (μg per ml)
Provide only the numeric value, understood in μg per ml.

// query Using the record for Cc1c(C(=O)NN2CCCCC2)nn(-c2ccc(Cl)cc2Cl)c1-c1ccc(Cl)cc1 [Phosphate] , report its Solubility, dissolution medium Acetic buffer pH 7.5.
// result 0.9

// query And the next one, Cc1c(C(=O)NN2CCCCC2)nn(-c2ccc(Cl)cc2Cl)c1-c1ccc(Cl)cc1 [Solvated compound A] ?
// result 1.2

// query And the next one, Cc1c(C(=O)NN2CCCCC2)nn(-c2ccc(Cl)cc2Cl)c1-c1ccc(Cl)cc1 [Hydrochloride (solvated)] ?
// result 54

// query And the next one, Cc1c(C(=O)NN2CCCCC2)nn(-c2ccc(Cl)cc2Cl)c1-c1ccc(Cl)cc1 [Paratoluenesulfonate] ?
// result 2.4

// query And the next one, Cc1c(C(=O)NN2CCCCC2)nn(-c2ccc(Cl)cc2Cl)c1-c1ccc(Cl)cc1 [Hydrogensulfate] ?
// result 30
